Origin of the recorded values: ChEMBL document CHEMBL1777753

Measured pIC50, listed per entry.
tested on: RAW264.7; test: Inhibition of RANKL-induced osteoclastogenesis in mouse RAW264.7 cells assessed as decrease in TRAP-positive multi-nucleated cells after 5 days; assay type: functional, cell-based; details: RAW264.7, 120 h
Please express pIC50 as -log10 of the molar concentration.

Please report the recorded pIC50 for "CO/N=C1\c2cc(OC)ccc2-c2c(OC)nc3ccccc3c21" .
5.10

// returns reported pIC50 for input "COc1ccc2c(c1)C(=O)c1c-2c(OC)nc2ccccc12"
5.70

# query: pIC50 of entry "CO/N=C1\c2cc(OC)ccc2-c2c(NOC)nc3ccccc3c21"
5.80

Requested field: pIC50. Item: "O=C1c2cc(O)ccc2-c2c(O)nc3ccccc3c21"
4.82

For the compound "COc1ccc2c(c1)C(=O)c1c-2c(SC)nc2ccccc12" , what pIC50 is on record?
5.59

If you can, please state the reported pIC50 value of "COc1ccc2c(c1)C(=O)c1c-2c(=O)n(C)c2ccccc12" .
4.94

Reported pIC50 for "C=CCOc1ccc2c(c1)C(=O)c1c-2c(OCC=C)nc2ccccc12" : what is it?
5.24

// lookup pIC50 for "C#CCOc1ccc2c(c1)C(=O)c1c-2c(OCC#C)nc2ccccc12"
5.02

====

test: Cytotoxicity against mouse RAW264.7 cells assessed as cell survival rate at 10 uM by MTT assay; format: cell-based; conditions: read-out: Survival
Measured viability at 10 µM, listed per entry for reference.
Write it as a number; the unit % goes unstated.

- COc1ccc2c(c1)C(=O)c1c-2cnc2ccccc12: 25.3
- COc1ccc2c(c1)/C(=N\O)c1c-2c(OC)nc2ccccc12: 46.9
- CNc1nc2ccccc2c2c1-c1ccc(OC)cc1C2=O: 25.9

Entry under review: "C#CCOc1ccc2c(c1)C(=O)c1c-2c(OCC#C)nc2ccccc12" . Reported viability at 10 µM?
30.9

Dear colleague, I am looking for the recorded viability at 10 µM of the following molecule: "COc1ccc2c(c1)C(=O)c1c-2c(OC)nc2ccccc12"
100

Recorded viability at 10 µM for "COc1ccc2c(c1)/C(=N\O)c1c-2c(O)nc2ccccc12" , please?
85.2

What measured viability at 10 µM goes with "C=CCOc1nc2ccccc2c2c1-c1ccc(OC)cc1C2=O" ?
105

====

test system: RAW264.7; assay: Inhibition of RANKL-induced osteoclastogenesis in mouse RAW264.7 cells assessed as decrease in TRAP-positive multi-nucleated cells after 5 days; type: functional, cell-based; conditions: RAW264.7, 120 h
Define the label as 1 when IC50 is strictly less than 9 µM and as -1 in all remaining cases.

Please review the entries below; each comes with its answer.
• C=CCn1c(=O)c2c(c3ccccc31)C(=O)c1cc(OC)ccc1-2 = -1
• CCOc1nc2ccccc2c2c1-c1ccc(OC)cc1C2=O = -1
• COc1ccc2c(c1)C(=O)c1c-2c(O)nc2ccccc12 = -1

Hello, I'm reviewing records and need to know if IC50 of "COc1ccc2c(c1)/C(=N\O)c1c-2cnc2ccccc12" is below 9 µM. Could you check?
-1

Is IC50 strictly under 9 µM for the entry "C#CCOc1ccc2c(c1)C(=O)c1c-2c(=O)n(CC#C)c2ccccc12" ?
-1

====

test: Cytotoxicity against mouse RAW264.7 cells assessed as cell survival rate at 10 uM by MTT assay; assay type: cell-based; details: read-out: Survival
REPORTED_PROPERTY: viability at 10 µM (%)
// return numeric value only (unit: %, not printed)

Guide cases for viability at 10 µM, answers given:
- O=C1c2cc(O)ccc2-c2c(O)nc3ccccc3c21: 16.8
- COc1ccc2c(c1)C(=O)c1c-2c(S)nc2ccccc12: 63
- C=CCSc1nc2ccccc2c2c1-c1ccc(OC)cc1C2=O: 106
- CO/N=C1\c2cc(OC)ccc2-c2c(OC)nc3ccccc3c21: 62.3
- CO/N=C1\c2cc(OC)ccc2-c2c(NOC)nc3ccccc3c21: 105
- COc1ccc2c(c1)C(=O)c1c-2c(SC)nc2ccccc12: 86.6
- C=CCOc1ccc2c(c1)C(=O)c1c-2c(OCC=C)nc2ccccc12: 75.1
- CC(C)Oc1ccc2c(=O)c(-c3ccccc3)coc2c1 [IPRIFLAVONE]: 102

Returns the measured viability at 10 µM for the input compound. Input: "COc1ccc2c(c1)C(=O)c1c-2c(=O)n(C)c2ccccc12"
66.6

Tell me the measured viability at 10 µM of "CO/N=C1\c2cc(OC)ccc2-c2cnc3ccccc3c21" , please.
55.4

====

system: RAW264.7; test: Inhibition of RANKL-induced osteoclastogenesis in mouse RAW264.7 cells assessed as decrease in TRAP-positive multi-nucleated cells after 5 days; assay type: functional, cell-based; conditions: RAW264.7, 120 h
REPORTED_PROPERTY: IC50 (µM)
Entry rule: numbers only, all in µM.

// known answers, use as guide
• CO/N=C1\c2cc(OC)ccc2-c2cnc3ccccc3c21 = 4.79
• COc1ccc2c(c1)/C(=N\O)c1c-2c(OC)nc2ccccc12 = 8.44
• C=CCOc1nc2ccccc2c2c1-c1ccc(OC)cc1C2=O = 15.4
• COc1ccc2c(c1)C(=O)c1c-2cnc2ccccc12 = 1.43
• C=CCSc1nc2ccccc2c2c1-c1ccc(OC)cc1C2=O = 15.6

// fetch RAW264.7 IC50 for O=C(O[C@@H]1Cc2c(O)cc(O)cc2O[C@@H]1c1cc(O)c(O)c(O)c1)c1cc(O)c(O)c(O)c1 [EPIGALOCATECHIN GALLATE]
29.8

Query the reported IC50 for RAW264.7; item: "COc1ccc2c(c1)C(=O)c1c-2c(S)nc2ccccc12"
13.8

Kindly state the measured IC50 obtained for "COc1ccc2c(c1)/C(=N\O)c1c-2c(O)nc2ccccc12" with RAW264.7.
9.11

API: value(readout= IC50, system= RAW264.7, query= "CNc1nc2ccccc2c2c1-c1ccc(OC)cc1C2=O" )
5.58
